List of inhibition values.
Assay: Shh-driven Gli reporter inhibition – luminescence, Shh-LIGHT2 cells, Gli-luciferase, primary screen (AID 2313);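 also: pathway switched on by Shh-conditioned medium diluted 1 in 25 in low serum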
Conditions: 30 h, hits give high values
In all, about 22,000 compounds went through this assay and about 460 (2.1%) were called active. Not shown: some 2% with an inconclusive outcome. The sample holds actives, similar compounds and a random draw of the others, so the mix is not that of the screen.
measure name: inhibition (%)

1) C[C@H](CO)N1C[C@H](C)[C@H](CN(C)S(=O)(=O)c2cccs2)Oc2ccc(NC(=O)Nc3ccccc3)cc2C1=O    -3.56
2) O=C(Cn1c(=O)n(-c2ccccc2)c(=O)c2cc(-c3ccccc3)sc21)c1cccs1    -31.1
3) Cc1ccc(NC(=O)c2cccc(N(C)C)c2)cc1NC(=O)c1ccc(O)cc1    83.8
4) C[C@@H]1CN([C@H](C)CO)C(=O)Cc2cc(NC(=O)C3CCCCC3)ccc2O[C@@H]1CN(C)S(C)(=O)=O    -14.6
5) C[C@H](CO)N1C[C@H](C)[C@@H](CN(C)Cc2ccc(Cl)c(Cl)c2)Oc2c(NC(=O)Nc3ccccc3)cccc2C1=O    -0.821
6) Cc1ccc(S(=O)(=O)Nc2ccc3c(c2)C(=O)N([C@H](C)CO)C[C@H](C)[C@H](CN(C)S(=O)(=O)c2ccc(F)cc2)OCCCC[C@@H](C)O3)cc1    -17.8
7) Cc1ccc2nc(C)c3c(c2c1)N(c1ccccc1)CC3    34.9
8) CCN1C(=O)c2cccc3c(NC(=S)NC(=O)c4ccccc4)ccc1c23    86.3
9) Cc1ccc2nc(Nc3ccccc3)cc(C)c2c1    72.3
10) C1=C(c2cccs2)CC(c2cccs2)=NN=C1c1cccs1    -1.01
11) C[C@@H]1CCCCO[C@H](CN(C)C(=O)NC2CCCCC2)[C@@H](C)CN([C@H](C)CO)C(=O)c2cc(NC(=O)CCC(F)(F)F)ccc2O1    20.6
12) CCCN(C)C[C@@H]1OCCCC[C@@H](C)Oc2ccc(NS(=O)(=O)c3c(C)noc3C)cc2C(=O)N([C@H](C)CO)C[C@@H]1C    35.2
13) Oc1c(Cl)cc(Cl)c(Cl)c1Cc1c(O)c(Cl)cc(Cl)c1Cl    102
14) NC(=S)c1cnn2c(C(F)(F)F)cc(C(F)(F)F)nc12    -19.5
15) CC(C)(C)c1ccc(-c2[nH]nc(NC(=O)c3ccccc3Cl)c2Br)cc1    25.9
16) Oc1ccc(-n2cccc2)cc1    30.8
17) Cc1cccc(NC(=O)c2ccc(C)c(S(=O)(=O)N3CCCC3)c2)c1    -48.9
18) CCOC(=O)c1nnn2c1nc(N1CCN(c3ccccc3)CC1)c1ccccc12    37.6
19) CC(=O)Nc1nc2ccccc2s1    -52.3
20) Cc1ccc(-c2c[n+](=O)c3c(n2[O-])CCC3)cc1    -26.9

###

Experiment: Shh-driven Gli reporter inhibition – luminescence, Shh-LIGHT2 cells, Gli-luciferase, primary screen (AID 2313);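 also: pathway switched on by Shh-conditioned medium diluted 1 in 25 in low serum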
Details: 30 h
Screen size: about 22,000 compounds; about 460 (2.1%) were called active. About 2% were inconclusive and are not listed.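 How the source made its calls: active means mean inhibition across valid replicates above about 65% (limit read from the data); inconclusive means mean under the limit, yet half or more replicates past it; inactive means the rest.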 The full list was thinned out, with actives kept by preference.
Outcome codes: y = active, n = inactive

1) CC(C)NC(=O)N(C)C[C@H]1Oc2c(NS(=O)(=O)c3cccs3)cccc2C(=O)N([C@H](C)CO)C[C@H]1C    n
2) COc1ccc(NC(=O)Nc2ccc3c(c2)CC(=O)N([C@@H](C)CO)C[C@@H](C)[C@@H](CN(C)Cc2ccc(Cl)c(Cl)c2)O3)cc1    n
3) C[C@@H]1CN([C@H](C)CO)C(=O)Cc2cc(NC(=O)CCCN(C)C)ccc2O[C@H]1CN(C)CC1CCCCC1    n
4) C[C@H]1CN([C@@H](C)CO)C(=O)c2cccc(NC(=O)C3CC3)c2O[C@@H]1CN(C)S(=O)(=O)c1ccc(F)cc1    n
5) COc1ccc(NC(=S)SC)cc1OC    n
6) C[C@H]1CN([C@@H](C)CO)C(=O)c2cc(NC(=O)Nc3ccccc3)ccc2O[C@H]1CN(C)S(C)(=O)=O    n
7) C[C@@H]1CN([C@H](C)CO)C(=O)c2cccc(NC(=O)NC3CCCCC3)c2O[C@@H]1CN(C)CC1CCCCC1    n
8) Cc1ccc(-n2nnnc2-c2cnn(-c3ccccc3)c2C)cc1    y
